Test system: SN12C renal
Assay: NCI tumour cell line growth inhibition, 48 h
Examples of molecules with documented GI50 follow.
Attribute measured: GI50

O=C(COc1cccc(/C=C2\COc3ccccc3C2=O)c1)Nc1nccs1	2.08 µM
COc1ccc(-c2n[nH]nc2-c2csc3ccccc23)cc1OC	8.8 µM
CC(=O)OC1COC(S[As](C)C)C(OC(C)=O)C1OC(C)=O (stereo not given)	0.48 µM
O=C1c2ccccc2C(=O)N1c1ccc(S(=O)(=O)Nc2ncccn2)cc1	> 100 µM
CCC[C@H](N[C@@H]1CCc2cc(F)cc(F)c2C1)C(=O)Nc1cn(C(C)(C)CNCC(C)(C)C)cn1	24.8 µM

====

The following molecules are listed with their measured TGI values.
System: CCRF-CEM leukemia
Experiment: NCI tumour cell line growth inhibition, 48 h
Attribute measured: TGI

O=c1[nH]c(Br)nc2c(Br)c[nH]c12	> 100 µM
CCC1CC2CN3CCc4c([nH]c5c(-c6c(OC)ccc7c8c([nH]c67)[C@]6(C(=O)OC)CC7CC(CC)C6N(CC8)C7)c(O)ccc45)[C@](C(=O)OC)(C2)C13 (some centres undefined)	> 100 µM
COCCOC(=O)C1=C(C)NC2=C(C(=O)CC(c3ccccc3OC)C2)C1c1cccc(O)c1 (centres undefined)	83.6 µM
COc1cc(CSc2nc3ccc(C)cc3c(=O)n2Cc2ccccc2)cc(OC)c1OC	> 100 µM
Cc1nn(C(=O)c2ccc(Cl)cc2)c2c1C(c1ccc([N+](=O)[O-])cc1)SC(N)=N2 (centres undefined)	> 10 µM
C=C1CC(CCCl)(c2ccccc2)OC1=O (centres undefined)	49.2 µM
COc1cnc2c(c1)C(=O)c1c-2n(CCCn2ccnc2)c(=O)c2cc(Cl)ccc12	> 100 µM
CC(=O)OC12c3ccccc3C1CCCCCC21OCCCO1 (centres undefined)	> 100 µM
CCCN(CCC)c1ccc(CO)c(C)c1	59.9 µM
N#Cc1[nH]c(=O)n(-c2ccc(Cl)cc2)c1N	> 10 µM
COc1ccc(O)c(C(=O)c2ccc(C(=O)O[C@@H]3CCCNC[C@H]3NC(=O)c3ccncc3)cc2)c1F	> 6.03 µM
Nc1ccc2c(c1)C(=O)c1c(F)cccc1-2	> 100 µM
O=c1c2ccc3cccc4c(=O)cc(c5ccccc15)-c2c34	> 100 µM
CC(=O)C1=C(N=[N+]=[N-])c2cccc3cccc(c23)C1=O	25.6 µM
Cc1c(C(=O)/C=C/c2ccc(Cl)cc2)[n+](=O)c2ccccc2n1[O-]	> 100 µM
CCCNCc1nc2ccc(Br)cc2c(=O)n1CCC	36.3 µM
CC(C)C(=O)N[C@@H](C)C(=O)N(Cc1ccc2ccccc2c1)N=O	> 100 µM
CC1=CC(C)(C)N=C2SC(c3ccc(Cl)cc3)=NN12	> 100 µM
COc1cccc(/C=N\Nc2ccc([N+](=O)[O-])cn2)c1O	38.2 µM
COc1ccc(Cc2nc3cc(C(F)(F)F)ccc3n2CCCN(C)C)cc1	44 µM
NC1C/C(=N\O)c2c(I)sc(I)c21 (centres undefined)	> 100 µM
Cc1ccc2c(c1)NC(=O)CCSSCCC(=O)N2	> 100 µM
O=P(O)(O)C(CSc1ccccc1)P(=O)(O)O	> 100 µM
COc1cc(N=NN(C)C)c(C(C)c2c3cc(OC)c(OC)cc3cc[n+]2C)cc1OC (centres undefined)	> 100 µM
O=[N+]([O-])c1ccccc1N=Nc1c(O)[nH]c2ccccc12	> 100 µM
CC(C)(C)c1ccc([I+]c2ccc(C(C)(C)C)cc2)cc1	9.14 µM
O=C1C2C=CC1C1C(=O)OC(=O)C21 (centres undefined)	> 100 µM
O=C1C=C(Nc2ccccc2C(=O)CC(=O)C(=O)Nc2cccc(C(F)(F)F)c2)c2ccccc2C1=O	44.7 µM
N#Cc1c(-c2ccccc2)/c(=C\O)c(=O)n2c1nc1ccccc12	> 100 µM
CN1CCN(c2ccc3nc(-c4cc(C(C)(C)C)c(O)c(C(C)(C)C)c4)[nH]c3c2)CC1	5.83 µM
C=CC1CC12C(=O)C1OC2(C)C2C(=O)c3c(ccc4c3ccc3ccccc34)C(=O)C12 (centres undefined)	> 100 µM
Cn1c(=O)cc2c3c(c(NCCCO)ccc31)C(=O)c1ccccc1-2	> 100 µM
[Cu+2].[O-]c1ccc2ccccc2c1N=Nc1ccccc1.[O-]c1ccc2ccccc2c1N=Nc1ccccc1	> 100 µM
Nc1ccc(Nc2nc(F)nc(-c3c4ccccc4c4n3CCS4)n2)cc1	62.2 µM
Cn1c(COC(=O)N2CCCCC2)nc2c(N3CCOCC3)nc(-c3ccccc3)nc21	1.48 µM
O=C1CCCc2c1c1c(n2Cc2ccccc2)-c2ccccc2C1=O	> 100 µM
CC[N+]1(C)CCC(O)(c2ccc(Cl)cc2)C(C(=O)c2ccc(Cl)cc2)C1 (centres undefined)	19.7 µM
O=C(O)CSCC(=O)Nc1ccc2cccc3c2c1CC3	> 100 µM
O=C1OCC(C#Cc2ccccc2)=C1Cl	18.1 µM
O=C1c2ccccc2CC12Cc1cc3c(cc1C2=O)CCC3 (centres undefined)	> 100 µM
CC(NS(C)(=O)=O)c1ccccc1 (centres undefined)	> 100 µM
COC(=O)NCCc1[nH]nc2c1C(=O)C=C(Nc1ccccc1)C2=O	51.1 µM
CCC[CH2][Sn]([CH2]CCC)([O]C(=O)c1cccc(F)c1)[O]C(=O)c1cccc(F)c1	0.832 µM
N=C(N)SCCc1cn2ccccc2n1	> 100 µM
